# Study Target: human 5-HT2A (h5-HT2A) receptor (Homo sapiens (Human), UniProt P28223)
# Experiment: FLIPR assay, human 5-HT2A, agonist mode
# Setup Conditions: FLIPR calcium assay
Please respond with reported EC50 for every item in the list.

Example entries and their recorded answers appear below.
Exam item: May I ask what EC50 has been recorded for `[2H]c1[nH]c2c([2H])c([2H])c([2H])c([2H])c2c1C1CCNCC1` ?
Marked response: 1 to 10 µM

Exam item: Consider the compound shown here: [2H]c1[nH]c2c([2H])c([2H])c([2H])c([2H])c2c1C1CC([2H])([2H])N(C)C1([2H])[2H] (stereo not drawn) What is its recorded EC50?
Marked response: > 10 µM

// below: EC50 requested for another compound
Exam item: State the recorded EC50 for this entry: [2H]c1[nH]c2c([2H])c([2H])c([2H])c([2H])c2c1C1CCN(C)C1 (stereo not drawn)
Marked response: > 10 µM

----------
pIC50: −log10 of the molar value.
Heads up, these molecules all have pIC50 values measured for human 5-HT2A (Homo sapiens (Human)).

Exam item: What does the record list as pIC50 for `[2H]c1[nH]c2c([2H])c([2H])c([2H])c([2H])c2c1C1CCNCC1` ?
Marked response: 5.00 to 6.30

Exam item: Which pIC50 is listed for [2H]c1[nH]c2c([2H])c([2H])c([2H])c([2H])c2c1C1CCN(C)C1 (stereo not drawn) ?
Marked response: > 6.30

Exam item: Returns the measured pIC50 for the input molecule. Input: [2H]C([2H])([2H])N1CCC(c2c[nH]c3ccccc23)C1 (stereo not drawn)
Marked response: 5.00 to 6.30

Exam item: Item [2H]C1([2H])CC(c2c[nH]c3ccc(OC)cc23)C([2H])([2H])N1C (stereo not drawn) has what recorded pIC50?
Marked response: 5.00 to 6.30

Exam item: Name the recorded pIC50 for `CN(C)CCc1c[nH]c2ccccc12` .
Marked response: > 6.30

Further cases:
Exam item: Which measured pIC50 value corresponds to [2H]c1[nH]c2c([2H])c([2H])c([2H])c([2H])c2c1C1CC([2H])([2H])N(C)C1([2H])[2H] (stereo not drawn) ?
Marked response: > 6.30
